Tested on: HCC-2998 colon
assay.details: NCI-60 one-dose screen, 48 h
test.context: 10 µM unless noted
Compounds without any hit were thinned out: in the full panel of roughly 83,000, 20% have a hit. Active and inactive are the calls of the source. Rule for the calls: active = growth percent below 10; inactive = the rest.
Allowed answers: active, inactive

Here are 3 compounds together with their reported answers.
Clc1ccc(-c2nnc(COc3ccc(C4=NNC(c5ccco5)C4)cc3)o2)cc1 (stereo not drawn); inactive
CC(=O)c1ccc2oc(=O)n(Cc3ccc(C#N)cc3)c(=O)c2c1; inactive
C[C@@H](C(=O)NCCCC#Cc1cnc(Nc2ccc(C#N)cc2)nc1NC1CC1)N(C)C(=O)/C=C/CN(C)C; inactive

What call does the record list for `Cn1cc([C@@H]2Nc3ccc4[nH]ncc4c3[C@H]3[C@H]4CCC(C4)[C@H]32)c(C(F)(F)F)n1` ?
inactive

----------
System: 786-0 renal
assay.details: NCI-60 one-dose screen, 48 h
test.context: 10 µM unless noted
The panel holds about 83,000 compounds, 20% with a hit somewhere; the sample as a whole holds those more often. Active and inactive are the calls of the source. How the source made its calls: active means growth percent below 10; inactive means the rest.
Use one of these outcomes when replying: yes (1) for active, no (0) for inactive

Answered examples (4):
S=C1CCCC(=S)N1; no (0)
COc1ccc(-c2nc(N3CCN(C(=O)C4CCCCC4)CC3)c3c4c(sc3n2)CCCC4)cc1; yes (1)
FC(F)(F)c1cccc(Nc2nc(-c3ccccc3)nc3ncccc23)c1; no (0)
CCCCc1ccc(NS(=O)(=O)c2cc3c4c(c2)CCN4C(=O)CC3)cc1; yes (1)

With those in mind, consider the next compound.
// outcome(item) with item = `Nc1ccc(-c2ccc(-c3ccccc3N)c3[nH]c4ccccc4c23)cc1`
no (0)

----------
System: OVCAR-3 ovarian
assay.details: NCI-60 one-dose screen, 48 h (100 = growth as untreated, 0 = no growth, -100 = all killed)
test.context: 10 µM unless noted
About 83,000 compounds went through this panel and 20% of them were active in at least one assay; those are over-represented in the sample as a whole.
What growth was measured for each of the following?
Numbers only, in %.

O=C(O)c1cn(C2CC2)c2cc(N3CCN(C(=O)C[n+]4ccccc4)CC3)c(F)cc2c1=O; 107
O=C(CCN1C(=O)c2ccccc2C1=O)Nc1ccc(Cl)cc1; 78.3
CCCSC1=NC2C(N(CC)C(=O)N2CC)N1/N=C/C=C/c1ccccc1[N+](=O)[O-] (stereo not given); -15.8
Nc1ccccc1-c1ccc(-c2ccc(Cl)cc2)c2c1[nH]c1ccccc12; 79

I need growth for every entry listed below, if you could help.
1. CCCCCCn1c(=N)n(CC(O)COc2cccc(C)c2)c2ccccc21 (stereo not given)
2. COc1c(B(O)O)cccc1-c1nc2ccc3[nH]ncc3c2c2c1C1CCC2C1 (stereo not given)
3. COc1cc(/C=C2\CN(C)C/C(=C\c3cc(CN4CCOCC4)c(O)c(OC)c3)C2=O)cc(CN2CCOCC2)c1O
4. COc1ccc(/C(C#N)=C/c2nc3c(N4CCOCC4)nc(Cl)nc3n2C)cc1OC
5. COc1ccc(-c2nc(-c3ccccn3)c(-c3ccccn3)n2CC(C)C)cc1OC1CCCC1

1: 23.3; 2: 59; 3: 22.2; 4: -86.1; 5: 15.5

----------
System: HCT-116 colon
assay.details: NCI-60 one-dose screen, 48 h
test.context: 10 µM unless noted
Compounds without any hit were thinned out: in the full panel of roughly 83,000, 20% have a hit. The source made the active and inactive calls. Rule for the calls: active = growth percent below 10; inactive = the rest.
Tick one outcome: 1 for active, -1 for inactive

Below are worked cases with known answers.
COc1ccc(Br)c(/C=C2\SC(=Nc3ccc(O)cc3)NC2=O)c1; -1
CCCC(=O)CC(C)=O.CCCC(=O)CC(C)=O.[Cu]; -1
Cc1ccc(CN2CCC(C(=O)Nc3ccc(-c4cc5ccccc5[nH]4)cc3)CC2)o1; -1

Please state the recorded outcome for this compound: O=C(Nc1ncc(Cc2cccc(C(F)(F)F)c2)s1)C1COc2ccccc2O1 (stereo not given)
-1

Test call for this compound, please: `O=C(/C=C/c1ccc(C(F)(F)F)cc1)c1ccc(Nc2nc(NCCO)nc(Nc3ccc(Cl)cc3)n2)cc1`
1

Look up the recorded call for CCN1C(=O)N(CC)C2C1NN=c1s/c(=C3\C(=O)N(C(C)C)c4ccccc43)c(=O)n12 (stereo not given) in this test.
-1

----------
Test system: M14 melanoma
assay.details: NCI-60 one-dose screen, 48 h
test.context: 10 µM unless noted
Compounds without any hit were thinned out: in the full panel of roughly 83,000, 20% have a hit. Active and inactive are the calls of the source. Rule for the calls: active = growth percent below 10; inactive = the rest.
// one of active, inactive, no free text

Completed entries (count: 5):
CC(C)(C)c1ccc(C2CC(=O)C3=C(C2)Nc2ccccc2N(C(=O)c2ccccc2Cl)C3c2ccc(F)cc2)cc1 (centres undefined); active
CN1C(=O)N(C)C2(c3ccccc3)OC(=S)NC12c1ccccc1 (centres undefined); inactive
COc1ccc(CCN2C(=O)CCSC2=S)cc1OC; inactive
O=c1cc(-c2ccccc2)oc2cc(OCc3cn(Cc4ccc(F)cc4)nn3)cc(OCc3cn(Cc4ccc(F)cc4)nn3)c12; inactive
CN(O)c1nc(N(C)O)nc(N2CCOCC2)n1; inactive

Tell me the assay call for `Nc1n[nH]c2ccc([C@@H]3Nc4ccc5[nH]ncc5c4[C@H]4[C@H]5CCC(C5)[C@H]43)cc12` please.
active

What outcome does the record of this test show for `Cc1ccc2[nH]c(=O)cc(-n3nncc3Cn3c4ccccc4c4ccccc43)c2c1` ?
inactive

Recorded test call requested for `O=C(CCc1nnc2sc(Cc3ccccc3Cl)nn12)c1nc2ncccc2[nH]1`
inactive

Assay outcome for `COc1ccc(C2=Nn3c(NN)nnc3SC2)cc1` : what was it?
inactive

Write down the call the test reported for this molecule. Item: `COc1cc(/C=C2\Oc3cc(OCCCN4CCCC4)ccc3C2=O)cc(OC)c1`
active

Recorded test outcome, item `CCOc1ccc(Nc2ccnc3cc(Cl)ccc23)cc1`
inactive

Assay outcome for `COc1cc(C#N)cc2[nH]c(=O)oc12` : what was it?
inactive

Would you mind telling me which call this test gave `NS(=O)(=O)c1ccc(CCN=C=S)cc1` ?
inactive

Call for entry `CCOC(=O)C1=C(C)c2ccc(OC)c(OC)c2C1` :
inactive

Tell me the recorded outcome of this test for `O=C(/C=C/c1ccc(C(F)(F)F)cc1)c1ccc(Nc2nc(NCCO)nc(Nc3ccc(Cl)cc3)n2)cc1` .
inactive

// outcome(item) with item = `COC(=O)C1=Nc2ccc(F)cc2/C1=C/c1sc(=S)[nH]c1O`
active

# outcome recorded in this test, key = `Nc1nc(-c2ccccc2Br)nn1-c1nc2ccccc2s1`
inactive

For `Fc1cccc(COc2ccc(Nc3ncnc4onc(-c5ccccc5)c34)cc2)c1` , what call appears in the results of this test?
active

----------
System: SK-MEL-5 melanoma
assay.details: NCI-60 one-dose screen, 48 h
test.context: 10 µM unless noted
The panel holds about 83,000 compounds, 20% with a hit somewhere; the sample as a whole holds those more often. Activity calls are given as the source filed them. Rule for the calls: active = growth percent below 10; inactive = the rest.
Could you please pick one outcome from this set? active, inactive

Illustrative cases are given below, each with its answer.
Cc1ccc(NC2=CC(=O)C(=O)c3ccccc32)c(C)c1; active
N#C/C(=C\c1c(-c2ccccc2)[nH]c2ccccc12)C(=O)c1ccccc1; inactive
O=C(NC1C(O)OC(CO)C(O)C1O)NS(=O)(=O)c1ccc(Cl)cc1 (configuration not stated); inactive
CCOc1ccccc1CN1CCc2nc3cc(C(C)(C)C)[nH]n3c(=O)c2C1; inactive
COc1ccc(/C=C/C(=O)c2c(C)nc3ccccc3c2/C=C/c2ccccc2)cc1O; inactive

Give the logged outcome of this assay for the following compound: CCN1C(=O)N(CC)C2C1NC(=S)N2/N=C/C=C/c1ccccc1OC (configuration not stated)
active

Could you please tell me the result logged for `O=C1c2cc(Br)ccc2Oc2cc([N+](=O)[O-])ccc2N1c1ccc(I)cc1F` in this assay?
inactive

Can you look up the reported call for C=C(C)CCC(C)N1CCC(N2CCC(C(=O)NCCc3ccccc3)CC2)CC1 (configuration not stated) for me?
inactive

Recorded call for `CN1CCN(Cc2ccc(NC(=O)c3[nH]ncc3Nc3cc(OC4CCCC4)ncn3)cc2)CC1` ?
inactive

Entry `COc1ccc(/C(C#N)=C/c2nc3c(N4CCOCC4)nc(Cl)nc3n2C)cc1OC` : call = ?
active

Record request — test call for `COc1cc(-c2c3c(cn2S(=O)(=O)c2ccccc2)-c2nc(N)sc2CC3)cc(OC)c1OC`
inactive

How did this test come out for `O=c1c2cc(F)ccc2sc2c(Nc3ccncc3)nc3ccccc3c12` ?
inactive

What did the test return for `CCN(CC)CCNC(=O)C(Cl)=C1C(Cl)=C(Cl)C(Cl)=C1Cl` ?
inactive

# fetch the recorded call for `NNC(=O)CNC(=O)Nc1n[nH]c(=S)s1` here
inactive

Check the results log: what was the call for `O=C(Nc1ccc(-c2nc3ccc(NC(=O)c4ccc(Cl)cc4)cc3[nH]2)cc1)c1ccc(Cl)cc1` ?
active

Status in this test for `Cc1ccc2sc3c(NCCCNCCO)nc4ccccc4c3c(=O)c2c1` ?
inactive

For `CCC1=C[C@@H]2CN(C1)Cc1c([nH]c3ccccc13)[C@@](C(=O)OC)(c1cc3c(cc1OC)N(C)[C@H]1[C@@](O)(C(=O)OC)[C@H](OC(C)=O)[C@]4(CC)[C@@H]5C[C@@H]5CN5CC[C@]31[C@@H]54)C2` , which call appears in the assay record?
active

Assay result, entry `COc1ccc(C2=C(c3cccc(OC)c3)C(=O)c3ccc(C)nc3C2=O)cc1` — outcome?
inactive

What was the test verdict on `COc1ccc(/C=C2\SC(=Nc3ccccc3)NC2=O)cc1` ?
active

Could you check what this test reported for `COc1ccc(/C=C/C(=O)c2ccc(Nc3nc(NCCO)nc(Nc4ccc(Cl)cc4)n3)cc2)cc1` ?
inactive

Which outcome was entered for the compound CCN1C(=O)N(CC)C2Nn3c(s/c(=C4\C(=O)N(C(C)C)c5ccccc54)c3=O)=NC21 (configuration not stated) in this test?
inactive
